Molecular target: T1, APC2474-AA
T1 chain: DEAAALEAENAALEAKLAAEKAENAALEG
Experiment: two-hybrid library CCmax;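 further: natural log of median RNA to DNA barcode read ratio; higher means stronger binding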
Conditions: mean of both orientations
We begin with a simple list: items and their reported interaction score.
measured-property: interaction score

binder="DEAAALEAKAAALKAKLAAEKAKNAALKG [APC2375-AA]" measured_property="interaction score" measured_value=-1.59
binder="DKLAAIKAEAAALEAENAALEAEAAALEG [APC1242-AA]" measured_property="interaction score" measured_value=-1.53
binder="DKLAAIKAKLAAIKAKLAAIKAKNAALKG [APC1115-AA]" measured_property="interaction score" measured_value=-1.58
binder="DEAAALEAEAAALEAKNAALKAKLAAEKG [APC2257-AA]" measured_property="interaction score" measured_value=-1.46
binder="DKLAAIKAKLAANKAELAANEAKLAAEKG [APC1987-AA]" measured_property="interaction score" measured_value=-1.87
binder="DKLAAIKAKLAANKAKLAAIKAELAAEEG [APC1916-AA]" measured_property="interaction score" measured_value=-1.31
